Provenance of the data: ChEMBL document CHEMBL1126169

Target: Adenosine receptor A1 (Cavia porcellus, UniProt P47745)
Sequence (P47745 whole entry): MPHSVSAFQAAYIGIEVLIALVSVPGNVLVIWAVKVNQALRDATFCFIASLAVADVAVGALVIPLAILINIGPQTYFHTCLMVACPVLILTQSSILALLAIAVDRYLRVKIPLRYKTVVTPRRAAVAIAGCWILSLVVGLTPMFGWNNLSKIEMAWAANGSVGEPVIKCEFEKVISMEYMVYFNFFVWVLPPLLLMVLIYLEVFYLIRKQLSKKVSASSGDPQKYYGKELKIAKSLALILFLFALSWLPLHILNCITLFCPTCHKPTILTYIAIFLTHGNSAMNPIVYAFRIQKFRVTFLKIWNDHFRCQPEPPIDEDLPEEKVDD
Test: Binding affinity against adenosine A1 receptor using N6-[3H]cyclohexyladenosine as radioligand in guinea pig forebrain membranes
Assay type: cell membranes, Brain membranes
# log10(Ki) annotations
recorded-metric: log10(Ki) (log10 of the value in nM)

{"columns": ["molecule", "recorded-metric", "recorded-result"],
 "data": [
  ["Cn1c(=O)c2c(ncn2C)n(C)c1=O", "log10(Ki)", 5.00],
  ["CCCn1c(=O)c2nc(C(C)(C)CC)[nH]c2n(CCC)c1=O", "log10(Ki)", 1.36],
  ["CCCn1c(=O)c2nc(C(C)(C)C)[nH]c2n(CCC)c1=O", "log10(Ki)", 1.49],
  ["CCCn1c(=O)c2nc(-c3cccs3)[nH]c2n(CCC)c1=O", "log10(Ki)", 2.32],
  ["CCCn1c(=O)c2nc(-c3csc(C)n3)[nH]c2n(CCC)c1=O", "log10(Ki)", 2.61],
  ["CCCn1c(=O)c2nc(CC3CC3)[nH]c2n(CCC)c1=O", "log10(Ki)", 2.08],
  ["CCCCn1c(=O)c2nc(C34CC5CC(CC3C5)C4)[nH]c2n(CCCC)c1=O", "log10(Ki)", 1.00],
  ["CCCn1c(=O)c2nc(-c3cccn3C)[nH]c2n(CCC)c1=O", "log10(Ki)", 2.15],
  ["CCCn1c(=O)c2nc(C(C)(O)CC)[nH]c2n(CCC)c1=O (configuration not stated)", "log10(Ki)", 2.38],
  ["CCCn1c(=O)c2[nH]c(C[C@H]3CC4CCC3C4)nc2n(CCC)c1=O (some centres not stated)", "log10(Ki)", 1.90],
  ["CC(C)(C)CNc1ncnc2c1ncn2C1O[C@H](CO)[C@@H](O)[C@H]1O (some centres not stated)", "log10(Ki)", 1.23],
  ["CCCn1c(=O)c2nc(CC34C[C@H]5C[C@@H](C3)C[C@@H](C4)C5)[nH]c2n(CCC)c1=O", "log10(Ki)", 2.94],
  ["CC(C)(C)Nc1ncnc2c1ncn2C1O[C@H](CO)[C@@H](O)[C@H]1O (some centres not stated)", "log10(Ki)", 1.30],
  ["CCCn1c(=O)c2nc(C(C)(C)CCC)[nH]c2n(CCC)c1=O", "log10(Ki)", 1.40],
  ["CCCC(CCC)Nc1ncnc2c1ncn2C1O[C@H](CO)[C@@H](O)[C@H]1O (some centres not stated)", "log10(Ki)", 0.52],
  ["CCCn1c(=O)c2nc(CC(C)(C)C)[nH]c2n(CCC)c1=O", "log10(Ki)", 1.69],
  ["CC(C)Nc1ncnc2c1ncn2[C@@H]1O[C@H](CO)[C@@H](O)[C@H]1O", "log10(Ki)", 0.28],
  ["CCCn1c(=O)c2nc(-c3ccco3)[nH]c2n(CCC)c1=O", "log10(Ki)", 2.75],
  ["CCCn1c(=O)c2nc(C3Cc4ccccc4C3)[nH]c2n(CCC)c1=O", "log10(Ki)", 2.34]
]}

* * *

Target: Adenosine A2 receptor (Rattus norvegicus, UniProt P29276+P30543)
Test: Binding affinity against adenosine A2 receptor using N-[3H]-ethyladenosin-5''-uronamide as radioligand in rat striatal membranes.
Type: cell membranes

{"columns": ["substance-smiles", "Ki"],
 "data": [
  ["CCCn1c(=O)c2nc(-c3cc4ccccc4s3)[nH]c2n(CCC)c1=O", "> 100 µM"],
  ["CCCn1c(=O)c2nc(-c3cnsn3)[nH]c2n(CCC)c1=O", "> 10 µM"],
  ["CCCn1c(=O)c2nc(C3C(C)(C)CCC3(C)C)[nH]c2n(CCC)c1=O", "> 100 µM"]
]}
